Just for reference, ChEMBL document CHEMBL4130408 is where these values come from.

Target: Polyunsaturated fatty acid lipoxygenase ALOX15 (Homo sapiens) (UniProt P16050)
Assay: Inhibition of recombinant human 15-LOX-1 expressed in Escherichia coli BL21(DE3) assessed as residual activity at 50 uM using linoleic acid as substrate preincubated for 10 mins followed by substrate addition
Item-by-item account of Activity
Number only, in %; omit the unit.

stdin: // lookup Activity | system=Polyunsaturated fatty acid lipoxygenase ALOX15 (Homo sapiens) (UniProt P16050) | key= Nc1[nH]c(C(=O)c2ccccc2)c(-c2ccc3ccccc3c2)c1C(=O)NCc1ccc(F)cc1
stdout: 86

* * *

Target: Polyunsaturated fatty acid lipoxygenase ALOX15 (Homo sapiens) (UniProt P16050)
Sequence (whole entry): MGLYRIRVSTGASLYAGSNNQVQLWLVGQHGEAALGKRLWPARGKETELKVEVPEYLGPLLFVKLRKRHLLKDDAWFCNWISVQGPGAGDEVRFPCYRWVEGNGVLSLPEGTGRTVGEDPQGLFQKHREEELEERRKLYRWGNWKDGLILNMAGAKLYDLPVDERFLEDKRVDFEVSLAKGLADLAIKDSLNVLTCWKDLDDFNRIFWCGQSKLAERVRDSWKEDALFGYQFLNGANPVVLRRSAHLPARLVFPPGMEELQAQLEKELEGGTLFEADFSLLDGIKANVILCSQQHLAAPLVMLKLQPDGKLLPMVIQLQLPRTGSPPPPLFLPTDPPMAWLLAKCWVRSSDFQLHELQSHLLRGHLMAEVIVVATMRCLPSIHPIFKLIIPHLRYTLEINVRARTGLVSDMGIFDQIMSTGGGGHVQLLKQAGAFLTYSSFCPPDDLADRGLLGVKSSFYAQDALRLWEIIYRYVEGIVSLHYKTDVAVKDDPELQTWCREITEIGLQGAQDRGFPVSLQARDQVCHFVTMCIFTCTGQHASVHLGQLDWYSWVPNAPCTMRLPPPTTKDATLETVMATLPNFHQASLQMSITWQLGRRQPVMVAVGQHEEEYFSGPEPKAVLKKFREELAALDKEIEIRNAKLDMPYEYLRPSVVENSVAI
Experiment: Inhibition of recombinant human 15-LOX-1 expressed in Escherichia coli BL21(DE3) assessed as residual activity at 50 uM using linoleic acid as substrate preincubated for 10 mins followed by substrate addition
parameter: Activity (%)
Unit % implied. Number only.

Examples with their reported Activity follow.
{"columns": ["structure.notation", "Activity (%)"],
 "data": [
  ["COc1ccc2cccc(-c3c(C(=O)c4ccc(Br)cc4)[nH]c(N)c3C(=O)NCc3ccc(-c4ccccc4)cc3)c2c1", 115],
  ["COc1ccc(-c2c(C(=O)c3ccccc3)[nH]c(N)c2C(=O)NCc2ccccc2)cc1OC", 90.7],
  ["Nc1[nH]c2ccccc2c1C(=O)NCCc1ccc(Cl)cc1Cl", 104],
  ["Nc1[nH]c(C(=O)c2ccccc2)c(-c2ccc(Cl)cc2)c1C(=O)N1CCCC1", 123]
]}

For the next question, use this compound.
stdin: Record request: Activity value, item Nc1[nH]c(C(=O)c2ccccc2)c(-c2cccc3ccccc23)c1C(=O)c1c(-c2ccccc2)[nH]c2ccccc12
stdout: 89.9

* * *

Molecular target: Polyunsaturated fatty acid lipoxygenase ALOX15 (Homo sapiens) (UniProt P16050)
Sequence (whole entry): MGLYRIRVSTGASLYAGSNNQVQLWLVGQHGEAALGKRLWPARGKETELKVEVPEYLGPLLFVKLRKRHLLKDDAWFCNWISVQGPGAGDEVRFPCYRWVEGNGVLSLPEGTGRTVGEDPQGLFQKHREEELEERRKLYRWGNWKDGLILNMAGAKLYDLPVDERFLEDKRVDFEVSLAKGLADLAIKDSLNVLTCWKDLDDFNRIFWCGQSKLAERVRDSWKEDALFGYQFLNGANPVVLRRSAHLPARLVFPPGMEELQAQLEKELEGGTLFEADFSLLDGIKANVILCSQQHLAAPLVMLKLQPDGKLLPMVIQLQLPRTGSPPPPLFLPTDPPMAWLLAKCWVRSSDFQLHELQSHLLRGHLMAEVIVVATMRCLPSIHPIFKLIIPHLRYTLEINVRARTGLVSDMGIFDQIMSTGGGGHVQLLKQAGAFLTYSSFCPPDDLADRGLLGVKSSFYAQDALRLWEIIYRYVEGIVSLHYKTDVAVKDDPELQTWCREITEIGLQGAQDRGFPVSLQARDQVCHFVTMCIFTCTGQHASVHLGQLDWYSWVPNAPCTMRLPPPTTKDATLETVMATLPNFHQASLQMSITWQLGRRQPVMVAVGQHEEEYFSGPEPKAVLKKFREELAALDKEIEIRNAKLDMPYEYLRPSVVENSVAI
Test: Inhibition of recombinant human 15-LOX-1 expressed in Escherichia coli BL21(DE3) assessed as residual activity at 50 uM using linoleic acid as substrate preincubated for 10 mins followed by substrate addition
parameter: Activity (%)
// units = %; emit number, no label

Example entries and their recorded answers appear below.
{"columns": ["structure.notation", "Activity, %"],
 "data": [
  ["Nc1[nH]c(C(=O)c2ccccc2)c(-c2ccc(Cl)cc2)c1C(=O)O", 87.9],
  ["Nc1[nH]c(C(=O)c2ccccc2)c(-c2ccccc2Cl)c1C(=O)c1ccccc1", 70.9],
  ["Nc1[nH]c2cc(C(F)(F)F)ccc2c1C(=O)NCc1ccc(F)cc1", 102],
  ["NC(=O)c1c(N)[nH]c(C(=O)c2ccccc2)c1-c1cccc2ccccc12", 69.2],
  ["CC(C)(C)C(=O)c1c(N)[nH]c(C(=O)c2ccccc2)c1-c1ccccc1Br", 82.9],
  ["Nc1[nH]c(C(=O)c2ccc(Br)cc2)c(-c2ccncc2)c1C(=O)c1ccccc1", 109],
  ["Nc1[nH]c(C(=O)c2ccccc2)c(-c2cccc3ccccc23)c1C(=O)NC1CCCCC1", 65.6],
  ["CCCCNC(=O)c1c(N)[nH]c(C(=O)c2ccc(F)cc2)c1-c1ccc(Cl)cc1C", 107],
  ["NC(=O)c1c(N)[nH]c(C(=O)c2ccccc2)c1-c1ccccc1", 116],
  ["NC(=O)c1c(N)[nH]c(C(=O)c2ccccc2)c1-c1cccnc1", 99.1]
]}

stdin: Which Activity is reported for this compound? Nc1[nH]c(C(=O)c2ccccc2)c(-c2ccc(Cl)cc2Cl)c1C(=O)c1ccc(Cl)c(Cl)c1
stdout: 40.8

stdin: State the recorded Activity for this entry: CC(C)(C)C(=O)c1c(N)[nH]c(C(=O)c2ccccc2)c1-c1ccc(Cl)cc1
stdout: 94.5

stdin: Give the measured Activity of COc1ccc(C(=O)c2[nH]c(N)c(C(=O)NCCc3c[nH]c4ccccc34)c2-c2ccccc2C(F)(F)F)cc1 .
stdout: 97.2

stdin: Given Nc1[nH]c(C(=O)c2ccccc2)c(-c2ccccc2C(F)(F)F)c1C(=O)NC1CCCCC1 , state its recorded Activity.
stdout: 101

* * *

Biological target: Polyunsaturated fatty acid lipoxygenase ALOX15 (Homo sapiens) (UniProt P16050)
Sequence (whole entry): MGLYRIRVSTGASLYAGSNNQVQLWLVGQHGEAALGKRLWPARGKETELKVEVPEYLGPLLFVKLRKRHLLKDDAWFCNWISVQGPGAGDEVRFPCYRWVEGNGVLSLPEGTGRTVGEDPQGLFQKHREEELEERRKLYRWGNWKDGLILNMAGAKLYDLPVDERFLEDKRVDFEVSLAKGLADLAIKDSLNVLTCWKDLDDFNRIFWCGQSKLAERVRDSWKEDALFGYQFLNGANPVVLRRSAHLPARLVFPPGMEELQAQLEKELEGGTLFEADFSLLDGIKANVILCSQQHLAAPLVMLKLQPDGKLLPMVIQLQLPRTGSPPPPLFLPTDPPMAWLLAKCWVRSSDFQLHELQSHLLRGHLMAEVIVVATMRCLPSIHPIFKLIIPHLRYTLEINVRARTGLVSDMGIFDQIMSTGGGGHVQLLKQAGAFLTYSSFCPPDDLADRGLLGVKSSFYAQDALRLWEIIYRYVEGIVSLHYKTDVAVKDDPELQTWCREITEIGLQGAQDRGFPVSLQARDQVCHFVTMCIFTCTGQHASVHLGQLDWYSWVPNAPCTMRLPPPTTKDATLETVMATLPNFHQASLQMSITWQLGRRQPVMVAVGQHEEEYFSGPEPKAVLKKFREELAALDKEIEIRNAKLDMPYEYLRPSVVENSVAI
Test: Inhibition of recombinant human 15-LOX-1 expressed in Escherichia coli BL21(DE3) assessed as residual activity at 50 uM using linoleic acid as substrate preincubated for 10 mins followed by substrate addition
parameter: Activity (%)
Express your answer in %, writing the number without its unit.

Worked examples follow.
{"columns": ["structure.notation", "parameter", "endpoint.value"],
 "data": [
  ["COC(=O)c1c(N)[nH]c(C(=O)c2ccccc2)c1-c1ccc(Cl)cc1", "Activity", 96],
  ["Nc1[nH]c(C(=O)c2ccccc2)c(-c2ccc(Br)cc2)c1C(=O)c1cccs1", "Activity", 81.3],
  ["Nc1[nH]c(C(=O)c2ccccc2)c(-c2ccccc2C(F)(F)F)c1C(=O)NCc1ccc(F)cc1", "Activity", 92.2]
]}

stdin: # query: Activity of entry NC(=O)c1c(N)[nH]c(C(=O)c2ccccc2)c1-c1ccncc1
stdout: 98.9

stdin: // lookup Activity for Nc1[nH]c(C(=O)c2ccccc2)c(-c2ccccc2Cl)c1C(=O)NCCc1c[nH]c2ccccc12
stdout: 98.2

stdin: Return reported Activity; argument: COc1ccc(CNC(=O)c2c(N)[nH]c(C(=O)c3ccccc3)c2-c2ccc3ccccc3c2)cc1OC
stdout: 120

stdin: Consider the compound shown here: Cc1[nH]c2ccccc2c1C(=O)c1c(N)[nH]c(C(=O)c2ccccc2)c1-c1ccc(Cl)cc1 What is its recorded Activity?
stdout: 79.7

stdin: Reported Activity for Nc1[nH]c(C(=O)c2ccc(Br)cc2)c(-c2ccc(Br)cc2)c1C(=O)NC1CC1 : what is it?
stdout: 95

stdin: Form field: reported Activity of Nc1[nH]c(C(=O)c2ccccc2)c(-c2ccc3ccccc3c2)c1C(=O)NCCc1ccc(Cl)cc1
stdout: 80.6

stdin: Using the record for Nc1[nH]c(C(=O)c2ccccc2)c(-c2cccc3ccccc23)c1C(=O)c1ccccc1 , report its Activity.
stdout: 108

stdin: Suppose we examine the compound Nc1[nH]c(C(=O)c2ccccc2)c(-c2cccc3ccccc23)c1C(=O)NCc1ccccc1 ; what Activity value has been reported?
stdout: 92.5

stdin: Could you share which Activity value was measured for Cc1ccc(-c2c(C(=O)c3ccccc3)[nH]c(N)c2C(=O)NCc2ccc(Cl)cc2)cc1 ?
stdout: 94.4

stdin: Activity lookup needed for Nc1[nH]c(C(=O)c2ccccc2)c(-c2ccc(Cl)cc2F)c1C(=O)NCCc1c[nH]c2ccccc12 , thanks.
stdout: 74.8

stdin: Given the compound Nc1[nH]c(C(=O)c2ccccc2)c(-c2ccc(Cl)cc2[N+](=O)[O-])c1C(=O)NCCc1c[nH]c2ccccc12 , what is its reported Activity?
stdout: 72.5
